Tested on: SNB-75
Assay: NCI tumour cell line growth inhibition, 48 h
Calls of active or inactive are those of the source. Rule as the data show it: active = GI50 up to about 1.1 µM and inactive = higher.
Possible outcomes: active, inactive

>  <compound>
CCC/C=C1\CCC(CN(C)C)C1=O (stereo not drawn)

>  <target_under_test>
SNB-75

>  <group>
inactive

$$$$
>  <compound>
CC(=O)Nc1ccc(C(=O)N2N=C(C)/C(=C/c3cccc([N+](=O)[O-])c3)C2=O)cc1

>  <target_under_test>
SNB-75

>  <group>
inactive

$$$$
>  <compound>
Cc1ccc(Nc2nc(O)c3[nH]cnc3n2)cc1CO

>  <target_under_test>
SNB-75

>  <group>
inactive

$$$$
>  <compound>
CC(C)[C@@H](C)[C@@]1(C)C[C@@H]1[C@@H](C)[C@H]1CC[C@@H]([C@@H]2CC=C3C[C@@H](O)CC[C@]3(C)C2=O)[C@]1(C)CCO

>  <target_under_test>
SNB-75

>  <group>
inactive

$$$$
>  <compound>
COC[C@H]1C(=O)NCC(=O)N2N=CCC[C@H]2C(=O)N(O)[C@H](C)C(=O)O[C@@H](C(C)C)[C@H](NC(=O)[C@@](C)(O)[C@]2(O)CC[C@@H](CC(C)C)[C@H](C)O2)C(=O)N2NCCC[C@@H]2C(=O)N1O

>  <target_under_test>
SNB-75

>  <group>
active

$$$$
>  <compound>
COC(=O)C1Cc2c(n(Cc3ccccc3)c3ccccc23)C(CCC(=O)O)N1C(C)C (stereo not drawn)

>  <target_under_test>
SNB-75

>  <group>
inactive

$$$$
>  <compound>
CC1=CC2CCC1(C)C/C2=C(/C)OC=O (stereo not drawn)

>  <target_under_test>
SNB-75

>  <group>
inactive

$$$$
>  <compound>
O=c1c2cc(S(=O)(=O)O)ccc2nc(COc2ccc(Oc3ccc(Cl)cc3Cl)cc2)n1C(=S)Nc1ccc(Cl)cc1

>  <target_under_test>
SNB-75

>  <group>
inactive

$$$$
